Data origin: patent US20180127503A1

- testedOn: T1, human ROR2 expressed on the cell surface (human, UniProt Q01974 34-943)
- T1 construct: Endogenous ROR2 of human tumour cell lines; also called cell surface ROR2; ROR2 on tumour cell lines
- protocolSummary: flow cytometry, SKOV3 cells (ovarian CA)
- Set-up: unit not given here
- Protocol: Human tumour cell lines were authenticated using short tandem repeat (STR) analysis. They were cultured in RPMI1640 (Cellgro) supplemented with 10% fetal bovine serum (FBS, Life Technologies) at 37° C. in a 5% CO₂ humidified incubator. They were harvested, washed in PBS and reacted with ROR2-IgG at 1 ug/10⁶ tumour cells on ice for an hour. #901-IgG was used as a negative control at the same dose. […] Staining was analyzed on a FACSCalibur (BD Biosciences). […]
readoutKind: binding intensity
Number, no unit, nothing else.

binder	result
ROR2-23 full length human IgG1 antibody (antibody, V domains shown, The light chain of clone 023 is labelled kappa; also called clone #23; clone #023 IgG1) VH: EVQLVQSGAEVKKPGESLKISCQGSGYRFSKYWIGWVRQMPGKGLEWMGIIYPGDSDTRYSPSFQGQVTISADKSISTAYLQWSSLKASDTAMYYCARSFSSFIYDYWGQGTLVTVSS VL: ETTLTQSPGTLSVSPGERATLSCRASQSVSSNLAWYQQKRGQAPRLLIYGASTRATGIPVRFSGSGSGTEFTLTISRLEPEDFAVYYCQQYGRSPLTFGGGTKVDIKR	116
ROR2-241 full length human IgG1 antibody (antibody, V domains shown) VH: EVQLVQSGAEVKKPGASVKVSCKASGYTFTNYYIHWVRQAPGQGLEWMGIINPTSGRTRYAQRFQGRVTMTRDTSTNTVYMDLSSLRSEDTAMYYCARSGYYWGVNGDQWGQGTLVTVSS VL: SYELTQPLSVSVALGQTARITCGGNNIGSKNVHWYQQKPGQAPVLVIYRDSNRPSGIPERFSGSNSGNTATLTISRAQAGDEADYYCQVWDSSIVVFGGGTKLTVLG	42

Let us examine a further case.
Reported binding intensity, binder ROR2-240 full length human IgG1 antibody (antibody, V domains shown, also called clone #240 IgG1) VH: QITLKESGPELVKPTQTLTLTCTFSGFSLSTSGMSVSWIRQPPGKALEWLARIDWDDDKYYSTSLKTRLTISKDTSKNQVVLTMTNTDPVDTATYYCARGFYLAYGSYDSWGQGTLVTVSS VL: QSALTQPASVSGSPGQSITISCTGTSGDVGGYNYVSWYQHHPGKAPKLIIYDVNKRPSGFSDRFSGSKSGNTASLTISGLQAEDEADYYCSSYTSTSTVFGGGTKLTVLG : ____
5
